The measured values listed here are drawn from patent US20240384350A1.

# Target Or System: EGFR T790M (Homo sapiens, UniProt P00533, T790M)
# Construct: expressed in transfected cells; host or cells: Ba/F3
# Method Description: Ba/F3 drug screening, Cell Titer Glo, IC50 Mut/WT
# Format: cell-based
# Measurement Setup: T790M-like-3S, 72 hours
Measurement Type: ratio of IC50 for cells with mutant EGFR to IC50 for cells with wildtype EGFR (Mut/WT)
I only need the number, thanks.

C=CC(=O)Nc1cccc(Oc2nc(Nc3ccc(N4CCN(C)CC4)cc3)nc3ccsc23)c1: 0.04611
C=CC(=O)N[C@H]1C=C(C)c2c(-c3cnc4ccccc4c3)c3c(N)ncnc3n2C1: 0.6671
COc1cc2ncnc(Nc3ccc(F)c(Cl)c3)c2cc1NC(=O)/C=C/CN1CCCCC1: 6.061

Task item: Item Cc1cc(C(=O)Nc2nc3cccc(Cl)c3n2[C@@H]2CCCCN(C(=O)/C=C/CN(C)C)C2)ccn1 : provide ratio of IC50 for cells with mutant EGFR to IC50 for cells with wildtype EGFR (Mut/WT)
Reply: 0.1166

* * *

# Target Or System: EGFR G719S (Homo sapiens, UniProt P00533, G719S)
# Construct: expressed in transfected cells; host or cells: Ba/F3
# Method Description: Ba/F3 drug screening, Cell Titer Glo, IC50 Mut/WT
# Assay type: cell-based
# Measurement Setup: PACC; G719S; Ba/F3; 72 hours
Measurement Type: ratio of IC50 for cells with mutant EGFR to IC50 for cells with wildtype EGFR (Mut/WT)
// print number alone

Answered examples (3):
COc1cc2ncnc(Nc3ccc(F)c(Cl)c3)c2cc1NC(=O)/C=C/CN1CCCCC1: 0.002178
CNC(=O)CN1CCC(Oc2cc3c(Nc4cccc(Cl)c4F)ncnc3cc2OC)CC1: 0.1998
COc1cc2ncnc(Nc3cccc(Cl)c3F)c2cc1OC(=O)N1CCN(C)C[C@H]1C: 0.01105

Task item: Using the record for CN(C)C/C=C/C(=O)Nc1cc2c(Nc3ccc(Cl)c(Br)c3)ncnc2cn1 , state its measured ratio of IC50 for cells with mutant EGFR to IC50 for cells with wildtype EGFR (Mut/WT).
Reply: 0.002634

* * *

Items are presented alongside their recorded ratio of IC50 for cells with mutant EGFR to IC50 for cells with wildtype EGFR (Mut/WT).
# Target Or System: EGFR D770insNPG (Homo sapiens, UniProt P00533, INS770NPG)
# Construct: expressed in transfected cells; host or cells: Ba/F3 cells, retroviral pBabe-Puro vector
# Method Description: Ba/F3 drug screening, Cell Titer Glo, IC50 Mut/WT
# Format: cell-based
# Measurement Setup: Ex20, 72 hours
Please respond with just the number, no unit label.

Use these answered entries as a reference point.
C=CC(=O)Nc1cccc(Oc2nc(Nc3ccc(N4CCN(C)CC4)cc3)nc3ccsc23)c1: 0.31
C=CC(=O)Nc1cc(Nc2ncc(C(=O)OC(C)C)c(-c3cn(C)c4ccccc34)n2)c(OC)cc1N(C)CCN(C)C: 1.211
Cc1cc(C(=O)Nc2nc3cccc(Cl)c3n2[C@@H]2CCCCN(C(=O)/C=C/CN(C)C)C2)ccn1: 0.529
C=CC(=O)N1CC[C@@H](Oc2nc(Nc3ccc(N4CCC(N5CCN(C)CC5)CC4)cc3)c(C(N)=O)nc2CC)C1: 1.296

Task item: Look up and report measured ratio of IC50 for cells with mutant EGFR to IC50 for cells with wildtype EGFR (Mut/WT) for this entry: COc1cc2ncnc(Nc3ccc(F)c(Cl)c3)c2cc1NC(=O)/C=C/CN1CCCCC1
Reply: 5.404

Task item: Specify reported ratio of IC50 for cells with mutant EGFR to IC50 for cells with wildtype EGFR (Mut/WT) for the molecule shown: C=CC(=O)Nc1cc(Nc2nccc(-n3cc(CN(C)C)c(-c4ccccc4)n3)n2)c(OC)cc1N1CCOCC1
Reply: 4.93

Task item: Given COc1cc2ncnc(Nc3cccc(Cl)c3F)c2cc1OC(=O)N1CCN(C)C[C@H]1C , respond with its ratio of IC50 for cells with mutant EGFR to IC50 for cells with wildtype EGFR (Mut/WT).
Reply: 3.835
